System: Italian ryegrass (Lolium multiflorum)
Test: Test D pre-/postemergence plant response
Assay type: in vivo
Conditions: Preemergence, 125 g ai/ha
MEASURED_ATTRIBUTE: Plant response rating (scale 0 to 100), Ryegrass, Italian
Respond numerically, and do not add a unit to the figure.

// known answers, use as guide
1) Clc1cnc(Oc2ccccc2-c2cc(C3CC3)on2)nc1    50
2) Cc1cc(-c2ccccc2Oc2ncc(Cl)cn2)on1    5
3) COc1cccc(Oc2ncc(Cl)cn2)c1-c1cc(C(F)(F)F)no1    5
4) FC(F)(F)c1cc(-c2ccccc2Oc2ncc(Cl)cn2)ncn1    30

So what's the measured Plant response rating (scale 0 to 100), Ryegrass, Italian for this one? Cc1cc(-c2c(F)cccc2Oc2ncc(Cl)cn2)on1
60
